- System: skin cancer cell line, A431
- assay_procedure: Inhibitory effect on growth of cancer cell line A431, SRB
- Assay type: cell-based
- condition_description: Homo sapiens, A-431, 72 h, overexpressed EGFR1 (HER-1)
- From the text: A skin cancer cell line, A431 (ATCC: CRL-1555), a breast cancer cell line, SK-Br3 (ATCC: HTB-30), and a colon and rectal cancer cell line, SW-620 (ATCC: CCL-227) were used to test the degrees of cancer cell growth inhibition using a culture medium, DEME (Dulbecco's Modified Eagle's Medium, JBI) including 4.5 g/l of glucose and 1.5 g/l of sodium bicarbonate and supplemented with 10% FBS (fetal bovine serum, JBI). […]
pIC50: −log10 of the molar value.
property_measured: pIC50

[1] C=CC(=O)Nc1cc2c(Nc3ccc(OCc4cccnc4)c(Cl)c3)ncnc2cc1OCCNC(C)=O
[2] C=CC(=O)Nc1cc2c(Nc3cc(Cl)c(Br)cc3F)ncnc2cc1OCCNC(=O)CN(C)C
Could you kindly indicate whether 1 or 2 has the higher pIC50 value? When you have decided, please share the label of that item.
2
(2: 7.96, 1: 6.10)

[P] C=CNC(=O)NCCOc1cc2ncnc(Nc3ccc(Br)cc3F)c2cc1NC(=O)C=C
[Q] C=CC(=O)Nc1cc2c(Nc3cc(Cl)c(Cl)cc3F)ncnc2cc1OCCNC(=O)CC
Hi, I'm comparing P with Q and wondering which one has the bigger number for pIC50. Any idea? I would appreciate it if you answered with the label of your choice.
Q
(Q: 8.30, P: 7.55)

[1] C=CC(=O)Nc1cc2c(Nc3ccc(Br)cc3F)ncnc2cc1OCCNC(=O)C(C)N (centres unmarked)
[2] C=CC(=O)Nc1cc2c(Nc3ccc(Br)cc3F)ncnc2cc1OCCNC(=O)C(=C)C
Which of the two gives a bigger number for pIC50: 1 or 2 ? Indicate which entry you chose by stating its label.
1

[A] C=CC(=O)Nc1cc2c(Nc3ccc(Br)cc3F)ncnc2cc1OCCNC(=O)CN
[B] C=CC(=O)Nc1cc2c(Nc3cc(Cl)c(Br)cc3F)ncnc2cc1OCCNC(=O)CC
Lab note: check whether A or B shows the higher recorded pIC50. // return label of chosen record
B

* * *

- Test system: skin cancer cell line, A431
- assay_procedure: Inhibitory effect on growth of cancer cell line A431, SRB
- Type: cell-based
- condition_description: Homo sapiens, A-431, 72 h, overexpressed EGFR1 (HER-1)
- Source text: A skin cancer cell line, A431 (ATCC: CRL-1555), a breast cancer cell line, SK-Br3 (ATCC: HTB-30), and a colon and rectal cancer cell line, SW-620 (ATCC: CCL-227) were used to test the degrees of cancer cell growth inhibition using a culture medium, DEME (Dulbecco's Modified Eagle's Medium, JBI) including 4.5 g/l of glucose and 1.5 g/l of sodium bicarbonate and supplemented with 10% FBS (fetal bovine serum, JBI). […]
property_measured: IC50 (nM)

>  <compound>
C=CC(=O)Nc1cc2c(Nc3ccc(Br)c(Cl)c3F)ncnc2cc1OCCNC(=O)CN(CC)CC

>  <endpoint_value>
68

$$$$
>  <compound>
C=CC(=O)Nc1cc2c(Nc3ccc(Br)cc3F)ncnc2cc1OCCNC(=O)CSC

>  <endpoint_value>
35

$$$$
>  <compound>
C=CC(=O)Nc1cc2c(Nc3ccc(Br)cc3F)ncnc2cc1OCCNC(=O)CN1CCOCC1

>  <endpoint_value>
35

$$$$
>  <compound>
C=CC(=O)Nc1cc2c(Nc3ccc(Br)cc3F)ncnc2cc1OCCNC(=O)CO

>  <endpoint_value>
37

$$$$
>  <compound>
C=CC(=O)Nc1cc2c(Nc3ccc(Br)cc3F)ncnc2cc1OCCNC(=O)NC(C)C

>  <endpoint_value>
31

$$$$

[A] CCC(=O)Nc1cc2c(Nc3ccc(Br)cc3F)ncnc2cc1OCCNC(C)=O
[B] C=CC(=O)Nc1cc2c(Nc3ccc(Br)cc3F)ncnc2cc1OCC(C)NC(=O)NCCC (centres unmarked)
Which value of IC50 is numerically greater: that of A or that of B ? Answer by quoting the chosen item's label.
A
(A: 951 nM, B: 38 nM)
